# cell viability per entry
tested on: Caco-2; assay: cell viability relative to DMSO; higher = less toxic; settings: 72 h; 1 nM
Kindly answer with a numeric value in %, unit omitted.

Reference set (3 entries):
Consider Cc1ccc(C(=O)C(C)CN2CCCCC2)cc1 (centres undefined) . Its measured cell viability is 92.4

Consider `C(=C\c1ccccc1)/CN1CCN(CCOC(c2ccccc2)c2ccccc2)CC1` . Its measured cell viability is 102

Consider `Cc1nc2ccc(Oc3ccc(F)cc3)cc2c(=O)n1C[C@H]1CCCN(C(C)C)C1` . Its measured cell viability is 102

Next up:
Consider `O=C(Nc1cccc(Nc2ncc(Br)c(NCCc3cnc[nH]3)n2)c1)N1CCCC1` . Its measured cell viability is 103
